assay system: PTP1B321 (Homo sapiens, UniProt P18031)
protocol details: Triterpene inhibition of PTP1B321 (Table 2)
Format: biochemical
I'd appreciate it if you marked entries 1 (yes) when Ki is lower than 9 µM and 0 (no) when it is not.

# example entries with known answers
>  <molecule>
CC1(C)C=C2[C@H]3CC[C@@H]4[C@@]5(C)CCC(=O)C(C)(C)[C@@H]5CC[C@@]4(C)[C@]3(C)CC[C@@]2(C(=O)O)CC1

>  <label class>
1 (yes)

$$$$
>  <molecule>
C=C(C)[C@@H]1CC[C@]2(C)CC[C@]3(C)[C@H](CC[C@@H]4[C@@]5(C)CC[C@H](O)C(C)(C)[C@@H]5CC[C@]43C)[C@@H]12

>  <label class>
1 (yes)

$$$$
>  <molecule>
C=C(C)[C@@H]1CC[C@]2(CO)CC[C@]3(C)[C@H](CC[C@@H]4[C@@]5(C)CC[C@H](O)C(C)(C)[C@@H]5CC[C@]43C)[C@@H]12

>  <label class>
1 (yes)

$$$$
>  <molecule>
COC(=O)[C@]1(C)CC[C@]2(C)CC[C@]3(C)C4=CC=C5C(=CC(=O)C(O)=C5C)[C@]4(C)CC[C@@]3(C)[C@@H]2C1

>  <label class>
0 (no)

$$$$

Report whether reported Ki is lower than 9 µM (strictly) for CC1CCC23CCC4(C)C5(C)CCC6C(C)(C)C(=O)CCC6(C)C5C=CC4(OC2)C3C1C (centres unmarked) 0 (no)

Report whether reported Ki is lower than 9 µM (strictly) for C=C(C)C1CC[C@]2(C(=O)O)CC[C@]3(C)[C@H](CC[C@@H]4[C@@]5(C)CC[C@H](O)C(C)(C)[C@@H]5CC[C@]43C)[C@@H]12 (some centres unmarked) 1 (yes)

Report whether reported Ki is lower than 9 µM (strictly) for C=C(C)[C@@H]1CC[C@]2(C(=O)O)CC[C@]3(C)[C@H](CC[C@@H]4[C@@]5(C)CC[C@H](OC(=O)CC(C)(C)C(=O)O)C(C)(C)[C@@H]5CC[C@]43C)[C@@H]12 1 (yes)

Report whether reported Ki is lower than 9 µM (strictly) for CC1(C)[C@@H](OC(=O)CCC(=O)O)CC[C@]2(C)[C@H]3C(=O)C=C4[C@@H]5C[C@@](C)(C(=O)O)CC[C@]5(C)CC[C@@]4(C)[C@]3(C)CC[C@@H]12 1 (yes)

Report whether reported Ki is lower than 9 µM (strictly) for CC1(C)CC[C@]2(C)CC[C@]3(C)[C@H](CC[C@@H]4[C@@]5(C)CCCC(C)(C)[C@@H]5CC[C@]43C)[C@@H]2C1 0 (no)

Report whether reported Ki is lower than 9 µM (strictly) for CC1(C)CC[C@]2(C(=O)O)CC[C@]3(C)C(=CC[C@@H]4[C@@]5(C)C[C@@H](O)[C@H](O)[C@@](C)(CO)[C@@H]5CC[C@]43C)[C@@H]2C1 1 (yes)
